assay.target: Angiotensin II Receptor (Bos taurus, UniProt P25104)
Construct: The brownish tissue forming the adrenal cortex is scraped off and finely minced with scissors before homogenization; tissue Maxwell-Cohen (local slaughter house); host or cells: beef adrenal cortex, microsomal membranes
Sequence (P25104 1-359): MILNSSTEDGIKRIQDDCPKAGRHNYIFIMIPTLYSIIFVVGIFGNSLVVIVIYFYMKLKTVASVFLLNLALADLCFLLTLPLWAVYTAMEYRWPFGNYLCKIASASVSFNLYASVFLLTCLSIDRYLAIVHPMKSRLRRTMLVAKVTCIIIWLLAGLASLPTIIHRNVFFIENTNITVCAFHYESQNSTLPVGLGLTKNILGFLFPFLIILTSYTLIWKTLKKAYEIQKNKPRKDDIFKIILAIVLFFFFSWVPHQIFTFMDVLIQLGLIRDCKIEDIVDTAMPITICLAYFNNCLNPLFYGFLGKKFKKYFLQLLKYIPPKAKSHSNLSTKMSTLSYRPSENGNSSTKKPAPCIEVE
assay.details: Receptor Binding Assay: competition with [^125 I](Sar^1, Ile^8)AngII on adrenal cortex microsomal membranes
Set-up: species or system beef
study.conditions: beef adrenal cortex membranes, [^125 I](Sar^1, Ile^8)AngII, 60 min, room temperature, pH 7.4
parameter.measured: IC50 (nM)

CCCCc1nc2ccc(C3CCC4CCCC4O3)cc2c(=O)n1Cc1ccc(-c2ccccc2-c2nn[nH]n2)cc1 (centres unmarked) [Example 10]; 105
CCCCc1nc2ccc(C3CCC4CCCCC4O3)cc2c(=O)n1Cc1ccc(-c2ccccc2-c2nn[nH]n2)cc1 (centres unmarked) [Example 11]; 132
